assayed-system: UniProt:P06870
Would you mind telling me the reported log10(IC50) of each entry?
On a log10 scale: recorded IC50, unit nM.

Cc1cc(C)c(C(=O)N[C@@H](Cc2ccc(F)c(F)c2)C(=O)NCc2ccc(N)nc2C)[nH]1; 0.72
Nc1ccc(CNC(=O)[C@H](Cc2ccc(F)c(F)c2)NC(=O)c2cc3ccccc3[nH]2)cn1; 1.33
CC(C)N(C)[C@H](C)C(=O)N[C@@H](Cc1ccc(Cl)c(Cl)c1)C(=O)NCc1ccc(N)nc1; 1.25

Dear reader, for each entry below, please note its log10(IC50).
1. Nc1ccc(CNC(=O)[C@H](Cc2ccc(Cl)c(Cl)c2)NC(=O)[C@H](N)CCc2ccccc2)cn1
2. Nc1ccc(CNC(=O)[C@H](Cc2cccc3ccccc23)NC(=O)c2ncc[nH]2)cn1
3. CN1CCC[C@@H]1C(=O)N[C@@H](Cc1ccc(Cl)c(Cl)c1)C(=O)NCc1ccc(N)nc1
4. Cc1cccc(C[C@H](NC(=O)[C@H]2CCCN2C)C(=O)NCc2ccc(N)nc2)c1
5. Nc1ccc(CNC(=O)[C@H](Cc2ccc(Cl)c(Cl)c2)NC(=O)[C@H]2CCCCN2)cn1
6. Cc1cc(C)c(C(=O)N[C@@H](Cc2cccc3ccccc23)C(=O)NCc2ccc(N)nc2C)[nH]1

1. 0.49
2. 1.48
3. -0.07
4. 0.58
5. -0.18
6. 0.51

Dear reader, for each entry below, please note its log10(IC50).
1. CCN(CC)[C@H](CO)C(=O)N[C@@H](Cc1ccc(F)c(F)c1)C(=O)NCc1ccc(N)nc1
2. Nc1ccc(CNC(=O)[C@H](Cc2cccc(C(F)(F)F)c2)NC(=O)c2ccc[nH]2)cn1
3. Cc1cc(C)c(C(=O)N[C@@H](Cc2ccccc2C(F)(F)F)C(=O)NCc2ccc(N)nc2)[nH]1
4. Cc1nc(N)ccc1CNC(=O)[C@@H](Cc1ccc(Cl)c(Cl)c1)NC(=O)[C@H]1CCCN1
5. CCC(C)[C@@H](NC)C(=O)N[C@@H](Cc1cccc(C(F)(F)F)c1)C(=O)NCc1ccc(N)nc1 (stereo partly drawn)
6. CN(C)[C@@H](Cc1ccccc1)C(=O)N[C@@H](Cc1ccc(F)c(F)c1)C(=O)NCc1ccc(N)nc1

1.93
0.53
0.18
0.62
0.15
0.94

* * *

Human KLK1 (Homo sapiens, UniProt P06870) measurements of pIC50, listed per entry.
Sequence (P06870 25-262): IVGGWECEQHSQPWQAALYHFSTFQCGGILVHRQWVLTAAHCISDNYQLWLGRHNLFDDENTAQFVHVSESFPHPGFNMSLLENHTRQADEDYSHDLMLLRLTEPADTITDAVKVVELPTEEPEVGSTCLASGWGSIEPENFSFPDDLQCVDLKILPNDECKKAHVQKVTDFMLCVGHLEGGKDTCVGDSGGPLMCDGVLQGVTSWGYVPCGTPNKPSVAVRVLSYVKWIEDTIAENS
Answers are plain numbers, as −log10 of the molar value.

The following molecules have reported results that may help.
Cc1cc(C)c(C(=O)N[C@@H](Cc2ccc(Cl)c(Cl)c2)C(=O)NCc2ccc(N)nc2C)[nH]1; 8.72
Cc1cc(C)c(C(=O)N[C@@H](Cc2c[nH]c3ccccc23)C(=O)NCc2ccc(N)nc2)[nH]1; 8.42
CCC(C)[C@@H](N)C(=O)N[C@@H](Cc1csc2ccccc12)C(=O)NCc1ccc(N)nc1 (stereo partly shown); 9.12
Nc1ccc(CNC(=O)[C@H](CC2CCCC3CCCCC32)NC(=O)c2ccc[nH]2)cn1 (stereo partly shown); 8.28
Nc1ccc(CNC(=O)[C@H](CC2CCCC3CCCCC32)NC(=O)[C@H](N)Cc2ccc(Cl)cc2)cn1 (stereo partly shown); 8.01
Cc1cc(C)c(C(=O)N[C@@H](Cc2ccc(F)cc2)C(=O)NCc2ccc(N)nc2C)[nH]1; 8.19

# ---- query molecule ----
Reported pIC50 for `COc1ccc2[nH]c(C(=O)N[C@@H](Cc3cccc(C(F)(F)F)c3)C(=O)NCc3ccc(N)nc3C)cc2c1` : what is it?
7.31

* * *

Human KLK1 (Homo sapiens, UniProt P06870) measurements of IC50, listed per entry.
Numbers only, in nM.

The following molecules have reported results that may help.
Nc1ccc(CNC(=O)[C@H](Cc2ccc(F)c(F)c2)NC(=O)[C@H]2CCCN2Cc2cccc(Cl)c2)cn1 [Example 143]; 21
Cc1nc(N)ccc1CNC(=O)[C@H](Cc1ccc(Cl)c(Cl)c1)NC(=O)[C@H](N)Cc1ccc(Cl)cc1 [Example 195]; 5.4
Cc1nc(N)ccc1CNC(=O)[C@H](Cc1ccc(F)cc1)NC(=O)[C@H]1CCCN1C [Example 204]; 5.9

# ---- query molecule ----
Could you share what IC50 was measured for Nc1ccc(CNC(=O)[C@H](Cc2cccc3ccccc23)NC(=O)[C@H]2CCCCN2)cn1 [Example 75] , tested on Human KLK1 (Homo sapiens, UniProt P06870)?
2.2

* * *

Human KLK1 (Homo sapiens, UniProt P06870) measurements of pIC50, listed per entry.
One number for each entry, as −log10 of the molar value.

The following molecules have reported results that may help.
Cc1cc(C)c(C(=O)N[C@@H](Cc2cccc(F)c2)C(=O)NCc2ccc(N)nc2)[nH]1 [Example 236]; 8.05
Cc1nc(N)ccc1CNC(=O)[C@@H](Cc1ccc(Cl)c(Cl)c1)NC(=O)[C@H]1CCCN1C [Example 190]; 8.74
CC(C)N1CCC[C@@H]1C(=O)N[C@@H](Cc1ccc(Cl)c(Cl)c1)C(=O)NCc1ccc(N)nc1 [Example 117]; 9.35
CCC(C)[C@@H](N)C(=O)N[C@@H](Cc1cccc(C(F)(F)F)c1)C(=O)NCc1ccc(N)nc1 (stereo partly shown) [Example 30]; 8.96
COc1ccc2[nH]c(C(=O)N[C@@H](Cc3ccc(Cl)c(Cl)c3)C(=O)NCc3ccc(N)nc3C)cc2c1 [Example 321]; 7.07

Dear reader, for each entry below, please note its pIC50.
1. Nc1ccc(CNC(=O)[C@H](Cc2ccc(F)c(F)c2)NC(=O)[C@H]2CCCN2Cc2ccc(Cl)cc2)cn1 [Example 142]
2. CCC(C)[C@@H](NC)C(=O)N[C@H](Cc1ccc(Cl)c(Cl)c1)C(=O)NCc1ccc(N)nc1C (stereo partly shown) [Example 188]

1. 7.82
2. 8.92

* * *

Human KLK1 (Homo sapiens, UniProt P06870) measurements of pIC50, listed per entry.
One number for each entry, as −log10 of the molar value.

The following compounds have reported results that may help.
COc1ccc2[nH]c(C(=O)N[C@@H](Cc3cccc(F)c3)C(=O)NCc3ccc(N)nc3)cc2c1; 7.42
CN1CCC[C@@H]1C(=O)N[C@@H](Cc1csc2ccccc12)C(=O)NCc1ccc(N)nc1; 8.74
CC(C)(C)[C@H](N)C(=O)N[C@@H](C(=O)NCc1ccc(N)nc1)C(C1CCCCC1)C1CCCCC1; 7.53

Reported pIC50 for `CC(C)N(C)[C@@H](C)C(=O)N[C@@H](Cc1ccc(F)c(F)c1)C(=O)NCc1ccc(N)nc1` : what is it?
8.40

* * *

Would you mind telling me the reported log10 IC50 of each entry?
assayed-system: Human KLK1 (Homo sapiens, UniProt P06870)
Construct: purchased Callbiochem (Calbiochem)
experimental-protocol: Determination of the IC50 for KLK1 (fluorogenic substrate H-DVal-Leu-Arg-AFC)
Format: biochemical
measurement-parameters: 37° C.
On a log10 scale: recorded IC50, unit nM.

The following molecules have reported results that may help.
CC(C)N(CC(=O)N[C@@H](CC1CCCC2CCCCC21)C(=O)NCc1ccc(N)nc1)C(C)C (stereo partly shown) [Example 394]; 0.92
Cc1nc(N)ccc1CNC(=O)[C@H](Cc1ccccc1C(F)(F)F)NC(=O)c1cc2ccccc2[nH]1 [Example 322]; 1.09
C[C@@H](C(=O)N[C@@H](CC1CCCCC1)C(=O)NCc1ccc(N)nc1)N(C)C [Example 391]; 1.69
CC(C)N(C)[C@@H](Cc1ccccc1)C(=O)N[C@@H](Cc1ccc(F)cc1)C(=O)NCc1ccc(N)nc1 [Example 373]; 1.41
CN(C/C=C/c1ccccc1)CC(=O)N[C@@H](Cc1ccc(F)c(F)c1)C(=O)NCc1ccc(N)nc1 [Example 162]; 1.58
CCN(C)[C@@H](CO)C(=O)N[C@@H](Cc1ccc(F)c(F)c1)C(=O)NCc1ccc(N)nc1 [Example 361]; 1.75

# ---- query molecule ----
Could you share what log10 IC50 was measured for COc1ccc(CN(C)CC(=O)N[C@@H](Cc2ccc(F)c(F)c2)C(=O)NCc2ccc(N)nc2)cc1 [Example 166] , tested on Human KLK1 (Homo sapiens, UniProt P06870)?
2.86

* * *

assayed-system: Human KLK1 (Homo sapiens, UniProt P06870)
Would you mind telling me the reported pIC50 of each entry?
Answers are plain numbers, as −log10 of the molar value.

The following compounds have reported results that may help.
CCC(C)[C@@H](N)C(=O)N[C@@H](Cc1ccc(Cl)c(Cl)c1)C(=O)NCc1ccc(N)nc1 (stereo partly drawn); 9.33
Nc1ccc(CNC(=O)[C@H](Cc2ccc(F)c(F)c2)NC(=O)CN2CCCCC2)cn1; 7.78
CC(C)N(C)[C@@H](C)C(=O)N(C)[C@@H](CC1CCCCC1)C(=O)NCc1ccc(N)nc1; 8.38
CCC(C)[C@@H](NC)C(=O)N[C@@H](Cc1cc(F)c(F)cc1F)C(=O)NCc1ccc(N)nc1 (stereo partly drawn); 8.10
Cc1cc(C)c(C(=O)N[C@@H](Cc2ccccc2C)C(=O)NCc2ccc(N)nc2)[nH]1; 8.11
CCCCN(C)[C@@H](C)C(=O)N[C@@H](Cc1ccc(F)c(F)c1)C(=O)NCc1ccc(N)nc1; 7.61
CCN1CCC[C@@H]1C(=O)N[C@@H](Cc1cccc(C)c1)C(=O)NCc1ccc(N)nc1; 6.54
Nc1ccc(CNC(=O)[C@H](Cc2ccc(Cl)c(Cl)c2)NC(=O)CN2CCCCC2)cn1; 7.48

Dear reader, for each entry below, please note its pIC50.
1. Nc1ccc(CNC(=O)[C@H](Cc2ccc(F)c(F)c2)NC(=O)CN2CCCC2)cn1
2. Cc1ccc(-c2ccc(C(=O)N[C@@H](Cc3ccc(F)c(F)c3)C(=O)NCc3ccc(N)nc3)[nH]2)cc1
3. Cc1cc[nH]c1C(=O)N[C@@H](Cc1ccccc1Cl)C(=O)NCc1ccc(N)nc1
4. Cc1nc(N)ccc1CNC(=O)[C@H](Cc1cccc(C(F)(F)F)c1)NC(=O)c1cc2ccccc2[nH]1
5. CCN(CC)[C@@H](C)C(=O)N[C@@H](Cc1cccc(C(F)(F)F)c1)C(=O)NCc1ccc(N)nc1
6. CCCN(C)[C@@H](C)C(=O)N[C@@H](Cc1ccc(F)c(F)c1)C(=O)NCc1ccc(N)nc1
7. Cc1cc(C)c(C(=O)N[C@@H](Cc2ccc(F)cc2)C(=O)NCc2ccc(N)nc2)[nH]1

[7.26, 7.45, 7.55, 7.37, 8.70, 7.67, 8.36]

// provenance: patent US20100076015A1
